- Test system: SK-MEL-28
- test_protocol: NCI tumour cell line growth inhibition, 48 h
Activity calls are given as the source filed them. Rule as the data show it: active = GI50 up to about 1.1 µM and inactive = higher.
// classify into t (active), f (inactive)

In: Which result was noted for this molecule in the test: CC(=O)c1ccc2c(c1)CC1(C2)Cc2cc3c(c(C(=O)O)c2C1)CCC3 (stereo not given)
Out: f

In: So what was the verdict on COC(=O)c1c(O)ccc2c1c1c(n2Cc2ccccc2Cl)C(=O)c2ccccc2C1=O in this test?
Out: f

In: Write down the call the test reported for this molecule. Item: NC1=NC2=c3ccccc3=C(c3cnccn3)C2(c2cnccn2)c2ccccc21 (stereo not given)
Out: f

In: In this assay, the call recorded for CCOC(=O)C1(Cc2ccc3ccccc3c2)CCCCCN1 (stereo not given) was what?
Out: f

In: Could you check what this test reported for CC(=O)/C(=C/N1CCNC1=S)C(=O)Nc1ccccc1C ?
Out: f

In: Tell me the recorded outcome of this test for COc1cc(C)c2c(c1C=O)Oc1c(c(C)c(O)c3c1C(O)OC3=O)OC2=O (stereo not given) .
Out: f

In: Outcome? CCOC(=O)CCC(NC(=O)C(N)Cc1ccc(N(CCCl)CCCl)cc1)C(=O)OCC (stereo not given)
Out: t

In: Could you please tell me the result logged for COc1ccc(/C=C\c2cc(OC)c3c(c2)OCO3)c(O)c1O in this assay?
Out: f

In: GET /call?item= Cc1nc2ccccc2nc1-c1ccc(/N=[N+](\[O-])c2ccc(-c3nc4ccccc4nc3C)cc2)cc1 returns the recorded outcome of this test.
Out: f

In: // return assay outcome for Cc1cc(N(CCC#N)CCC#N)ccc1/C=C1N=C(/C=C/c2ccccc2)N(c2ccc(S(N)(=O)=O)cc2)C\1=O
Out: f

====

So I've got a bunch of compounds here, and I need their GI50 values.
- Test system: OVCAR-8
- test_protocol: NCI tumour cell line growth inhibition, 48 h
Calls of active or inactive are those of the source. Cut-off read from the data, not from the text of the source: active = GI50 up to about 1.1 µM and inactive = higher. Where a SMILES comes first, the peptide text is derived from it. The star is where a group is joined. Boc = CC(C)(C)OC(=O)*; nBu = CCCC*

Looking up COc1cc([C@@H]2c3cc4c(cc3[C@@H](OC(=O)c3cccc(N)c3)C3COC(=O)[C@@H]32)OCO4)cc(OC)c1O (some centres not stated) , I found its GI50 recorded as 8.05 µM (inactive)

Noted for CCC1(O)C[C@H]2CN(CCCc3c([nH]c4ccccc34)[C@@](C(=O)OC)(c3cc4c(cc3OC)N(C)C3[C@](O)(C(=O)OC)[C@H](OC(C)=O)[C@]5(CC)C=CCN6CC[C@]43[C@H]65)C2)C1 (some centres not stated) : its GI50 reads 2.96 µM (inactive)

Form: compound = O=C1Nc2ccccc2SC1=C(C(=O)c1ccccc1)C(=O)c1ccccc1 ; GI50 = 52.4 µM (inactive)

Note to self: GI50 recorded for CCCCCCCCCCCCCCCCCCC1=C(O)C(=O)C=C(OC)C1=O was 32.4 µM (inactive)

GI50 in this record for COc1ccc2c3c([nH]c2c1)CCN(CCCC(=O)c1ccc(F)cc1)C3 : 15.6 µM (inactive)

Just so you know, measured GI50 for Clc1ccc(/C=N/C23CC4CC(CC(C4)C2)C3)cc1Cl came out at > 10 µM (inactive)

# compound CCCCOc1ccc(CC(NC(=O)OC(C)(C)C)C(=O)NC(C)C(=O)NC(Cc2ccccc2)C(=O)NCC(N)=O)cc1 (configuration not stated) (Boc-Y(nBu)AFG-NH2; configuration not given here) ; its GI50 = > 100 µM (inactive)
